From: ChEMBL document CHEMBL1145498

Target: Cyclin-dependent kinase 2 (Homo sapiens, UniProt P24941)
Sorting guide: entries reporting ΔTm beneath 1 °C go in the Criterion met pile, the rest go in the Criterion not met pile.

See these solved cases before continuing.
>>> class("NC1=N/C(=C2/CCNC(=O)c3[nH]ccc32)C(=O)N1")
"Criterion met"
>>> class("Cc1ccc(NC2=CC(=O)c3sc(C)nc3C2=O)cc1")
"Criterion met"
>>> class("O=Nc1c(-c2c(O)[nH]c3ccccc23)[nH]c2ccccc12")
"Criterion not met"

hey, is ΔTm for Nc1ncnc2c1c(I)cn2[C@@H]1O[C@H](CO)[C@@H](O)[C@H]1O lower than 1 °C or not?
Criterion not met

Same lookup for O=C1Nc2ccccc2/C1=C\c1ccc[nH]1 , please.
Criterion not met

Another molecule to look at: CC(C)(C)c1nc2c3ccc(F)cc3c3c(=O)[nH]ccc3c2[nH]1
Criterion not met

----------
This section lists ΔTm readings for cAMP-dependent protein kinase catalytic subunit alpha (Homo sapiens).
Write the answer as a number in °C, unit excluded.

Solved cases (4 shown):
>>> recorded_measurement("N=C(N)NCCNS(=O)(=O)c1cccc2cnccc12")
1.7
>>> recorded_measurement("Nc1nc(Nc2ccc(S(N)(=O)=O)cc2)nn1C(=S)Nc1c(F)cccc1F")
4.1
>>> recorded_measurement("Nc1cccc(-c2cc3c(Oc4cccc(O)c4)ncnc3[nH]2)c1")
-0.6
>>> recorded_measurement("Cl.Cn1cc(C2=C(c3ccc4cc5n(c4c3)CCC(CN)C5)C(=O)NC2=O)c2ccccc21 (stereo unspecified)")
1.5

Return reported ΔTm; argument: COc1ccc(Cl)cc1NC(=O)Nc1cc(C)nc2ccccc12
4.8

Please answer likewise for Cn1cc(C2=C(c3cn(CCCN)c4ccccc34)C(=O)NC2=O)c2ccccc21
2.6

Same thing, different molecule: Nc1cc2ncnc(Nc3cccc(Br)c3)c2cc1N
1

Try O=C1C=C2C(=Nc3c2c2c(c4c3=NC3=C4CCC=C3)C=NC=2)CC1 next.
2.1

Could you do the same for O=c1cc(N2CCOCC2)oc2c1ccc1ccccc12 , please?
0.2

// same read-out, input: N#C/C(=C(/N)Sc1ccc(N)cc1)c1ccccc1C(F)(F)F
0.7

Then this molecule: O=C1Nc2ccc(I)cc2/C1=C\c1cc(Br)c(O)c(Br)c1
1

Can you handle O=c1c2ccccc2[nH]c(=S)n1CCN1CCC(=C(c2ccc(F)cc2)c2ccc(F)cc2)CC1 next?
0.8

What do we get for CC[C@H](CO)Nc1nc(NCc2ccccc2)c2ncn(C(C)C)c2n1 ?
0.2

Entry CC(C)(C)n1nc(-c2ccc(Cl)cc2)c2c(N)ncnc21 please
2.3

Same read-out for COc1cc(OC)c(/C=C2\C(=O)Nc3ccccc32)c(OC)c1 ?
0.4

Same question, Nc1n[nH]c2nnc(-c3c(-c4ccccc4)nn4ccccc34)cc12 this time
0.3

Please give the result for COc1ccc2c(c[n+](C)c3c4cc5c(cc4ccc23)OCO5)c1OC [CHELERYTHRINE CHLORIDE] too.
1.4

Try the molecule NC1=NC(=O)/C(=C2\CCNC(=O)c3[nH]c(Br)cc32)N1
0.8

Proceed to O=c1cc(N2CCOCC2)oc2c(-c3ccccc3)cccc12
-0.1

Try this molecule next: CCOc1ccc(/C=C2/SC(=O)N(CCN)C2=O)cc1
0.5

Repeat with O=c1ccc2ccc(O)c(O)c2o1
0.6

Same thing, different molecule: COc1cc2ncnc(Nc3ccc(F)c(Cl)c3)c2cc1OCCCN1CCOCC1
1.1

Another molecule: CN1CCC(Nc2ncc3ncnc(Nc4ccc(F)c(Cl)c4)c3n2)CC1
0.4

Can you check O=c1c(O)c(-c2ccc(O)c(O)c2)oc2cc(O)cc(O)c12 next?
4.2

----------
Entries annotated with measured ΔTm
Molecular target: Serine/threonine-protein kinase pim-1 (Homo sapiens) (UniProt P11309)
Sequence (P11309 whole entry, looked up): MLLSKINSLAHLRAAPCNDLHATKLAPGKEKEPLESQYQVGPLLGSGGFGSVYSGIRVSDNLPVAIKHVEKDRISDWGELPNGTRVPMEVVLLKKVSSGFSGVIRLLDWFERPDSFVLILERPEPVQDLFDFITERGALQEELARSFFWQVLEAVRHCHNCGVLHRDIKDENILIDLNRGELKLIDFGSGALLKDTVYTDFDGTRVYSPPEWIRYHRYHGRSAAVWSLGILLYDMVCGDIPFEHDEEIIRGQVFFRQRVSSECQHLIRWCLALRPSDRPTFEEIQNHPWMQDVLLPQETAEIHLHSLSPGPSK
Reply with just the number (in °C).

>>> recorded_measurement("O=C1c2ccccc2-[n+]2ccc3c([nH]c4ccccc43)c21 [FASCAPLYSIN CHLORIDE]")
-0.8
>>> recorded_measurement("O=C1Nc2ccccc2/C1=C\\c1ccc[nH]1")
0.1
>>> recorded_measurement("Cc1c2ccncc2c(C)c2c1[nH]c1ccccc12")
4.8
>>> recorded_measurement("COc1cccc(-c2cc(=O)c3ccccc3o2)c1N")
0.9
>>> recorded_measurement("CN(C)c1ccc(CC2C(=O)Nc3ccccc32)cc1 (stereo unspecified)")
-0.2
>>> recorded_measurement("NC(=O)c1ccc2[nH]c(-c3ccc(Oc4ccc(Cl)cc4)cc3)nc2c1")
0.4
>>> recorded_measurement("COC1=C2C[C@@H](C)C[C@H](OC)[C@H](O)[C@@H](C)/C=C(\\C)[C@H](OC(N)=O)[C@@H](OC)/C=C\\C=C(/C)C(=O)NC(=CC1=O)C2=O")
-0.2
>>> recorded_measurement("CCOc1cc2ncnc(Nc3cccc(Br)c3)c2cc1OCC")
0.2
>>> recorded_measurement("COc1ccc2c(c1)/C(=C/c1cnc[nH]1)C(=O)N2")
1.3
>>> recorded_measurement("O=C(O)c1cc(NCc2cc(O)ccc2O)ccc1O")
0

Now let's try a different one.
What measured ΔTm goes with COc1ccc(Cl)cc1NC(=O)Nc1cc(C)nc2ccccc12 ?
-1.1

----------
Target: Serine/threonine-protein kinase 16 (Homo sapiens) (UniProt O75716)
Sequence (O75716 whole entry): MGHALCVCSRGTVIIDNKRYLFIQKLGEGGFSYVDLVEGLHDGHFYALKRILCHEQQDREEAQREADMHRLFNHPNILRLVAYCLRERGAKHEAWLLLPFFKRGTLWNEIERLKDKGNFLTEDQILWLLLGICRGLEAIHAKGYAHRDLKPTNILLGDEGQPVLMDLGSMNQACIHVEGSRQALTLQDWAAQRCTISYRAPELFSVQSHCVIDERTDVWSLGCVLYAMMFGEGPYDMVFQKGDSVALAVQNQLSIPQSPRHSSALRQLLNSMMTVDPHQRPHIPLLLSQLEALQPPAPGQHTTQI
assay_metric: ΔTm
Please report the result as a number followed by the unit.

Reference set (2 entries):
>>> recorded_measurement("CCN1/C(=C/C(C)=O)Sc2ccc(OC)cc21")
"1.7 °C"
>>> recorded_measurement("Nc1nc(Nc2ccc(S(N)(=O)=O)cc2)nn1C(=S)Nc1c(F)cccc1F")
"7.8 °C"

What measured ΔTm goes with CN(C)CC1CCn2c(c(C3=C(c4c[nH]c5ccccc45)C(=O)NC3=O)c3ccccc32)C1 (centres undefined) ?
1.3 °C

Quick one: C=CNC#N
0 °C

Also, COc1cc2c(cc1OC)-c1n[nH]c(Nc3cccc(F)c3)c1C2 please.
0.4 °C

----------
Here we list compounds with their recorded ΔTm when tested on Calcium/calmodulin-dependent protein kinase type 1D (Homo sapiens).
Reply numerically in °C, unit not repeated.

>>> recorded_measurement("COc1nccc(-c2c(-c3ccc(F)cc3)ncn2[C@H]2CC[C@H](O)CC2)n1")
-0.1
>>> recorded_measurement("Nc1cccc(-c2cc3c(Oc4cccc(O)c4)ncnc3[nH]2)c1")
0.3
>>> recorded_measurement("COc1ccc(CNC(=O)Nc2ncc([N+](=O)[O-])s2)cc1")
0.3
>>> recorded_measurement("O=C1c2ccccc2-c2n[nH]c3cccc1c23")
2.1
>>> recorded_measurement("CCOC(=O)c1c(C)[nH]c(/C=C2\\C(=O)Nc3ccccc32)c1C")
0
>>> recorded_measurement("CC(C)n1cnc2c(NCc3ccccc3O)nc(NCCCO)nc21")
0
>>> recorded_measurement("COc1ccc2c(c1)/C(=C/c1cnc[nH]1)C(=O)N2")
0.5
>>> recorded_measurement("OC[C@H]1O[C@@H](n2cnc3cc(Cl)c(Cl)cc32)[C@H](O)[C@@H]1O")
0

Let us examine a further case.
What value of ΔTm has been reported for the following compound? NCCNc1ncc(C(N)=O)c(Nc2cccc(C(F)(F)F)c2)n1
5.1

----------
Molecular target: cAMP-dependent protein kinase catalytic subunit alpha (Homo sapiens)
# ΔTm listing for each entry below
Give the quantity in °C, number only.

>>> recorded_measurement("Cc1c2ccncc2c(C)c2c1[nH]c1ccccc12")
5.9
>>> recorded_measurement("O=S(=O)(c1cccc2c(Cl)cccc12)N1CCCNCC1")
1.4
>>> recorded_measurement("CC(C)n1cnc2/c(=N/c3cccc(Cl)c3)nc(NCCO)[nH]c21")
1.4
>>> recorded_measurement("CC(C)c1cc(/C=C(\\C#N)C(=O)NCCCc2ccccc2)cc(C(C)C)c1O")
0.5
>>> recorded_measurement("O=c1sn(Cc2ccccc2)c(=S)n1Cc1ccccc1")
0.4
>>> recorded_measurement("COc1cc2ncnc(Nc3ccc(NC(=O)c4ccccc4)cc3)c2cc1OC")
1
>>> recorded_measurement("O=C1c2ccccc2-c2n[nH]c3cccc1c23")
2.3
>>> recorded_measurement("CCOC(=O)c1cnc2oc3ccc(O)cc3c2c1-c1ccccc1")
1.3

Name the recorded ΔTm for Ic1cccc(CSc2nnc(-c3ccncc3)o2)c1 .
0.3

And then O=C1Nc2cc(Br)ccc2/C1=C1/Nc2ccccc2/C1=N\O , what is it?
0.5

Likewise for COc1ccc2c(c1)/C(=C/c1cnc[nH]1)C(=O)N2 ?
1

Okay, and COc1nccc(-c2c(-c3ccc(F)cc3)ncn2[C@H]2CC[C@H](O)CC2)n1 ?
-0.8

Also, C/C(O)=C(\C#N)C(=O)Nc1cc(Br)ccc1Br please.
1.4

Proceed to CSc1nc(-c2ccc(F)cc2)c(-c2ccnc(NC(C)c3ccccc3)c2)[nH]1 (racemic)
-0.7

Next entry: CN1CCc2[nH]c(=S)c(C#N)c(-c3cccs3)c2C1
14.1

Continue with O=C1NC(=O)C(c2cn(CCCn3ccnc3)c3ccccc23)=C1Nc1ccccc1
0.3

Cool, now Cc1ccc(NC(=O)c2cccc(N(C)C)c2)cc1NC(=O)c1ccc(O)cc1
0.9

Further, for N#C/C(=C\c1ccc(O)c(O)c1)C(=O)Nc1ccccc1 ?
0.4

Try the compound O=C(Nc1cccc(Nc2cc(Nc3cccc(C(F)(F)F)c3)ncn2)c1)C1CC1
1.1

Please give the result for O=C1c2ccccc2-[n+]2ccc3c([nH]c4ccccc43)c21 [FASCAPLYSIN CHLORIDE] too.
0.6

Again, but for CCN1/C(=C/C(C)=O)Sc2ccc(OC)cc21
-0.5

Another compound to look at: O=C1Nc2ccc(S(=O)(=O)O)cc2/C1=C1/Nc2ccccc2/C1=N\O
1.2

What about this compound? NC(=O)c1ccc(-c2nc(-c3ccc4c(c3)OCCO4)c(-c3ccccn3)[nH]2)cc1
-0.3

Now consider O=C1NC(=O)c2c1c1c3ccccc3n3c1c1c2c2ccccc2n1C1CCC3O1 .
0.3

How about this compound: O=S(=O)(NCCNC/C=C/c1ccc(Br)cc1)c1cccc2cnccc12
6.9

What would you report for COc1cc2c(cc1OC)-c1n[nH]c(Nc3cccc(F)c3)c1C2 ?
0.9

Ok, now Brc1c(Br)c(Br)c2[nH]nnc2c1Br
0.6

And the next one, Cn1cc(/C=C2/C(=O)Nc3ccc(S(N)(=O)=O)cc32)c2ccccc21 ?
0.9
